- TEST_PROTOCOL: gradient 5% acetonitrile 3 min, to 50% in 2 min, to 85% in 15 min, held 3 min, 100 µL/min
- PROTOCOL_CONDITIONS: column: Zorbax Extend-C18 2.1 x 50 mm; eluents: water / acetonitrile, 0.1% formic acid
Assign RP-LC retention time to each entry below.

IN: // returns reported RP-LC retention time for input Cc1nc(C)c(C(=O)N(C)C2CCc3nn(CC4CC4)c(=O)n3CC2)s1 (centres undefined)
OUT: 626 s

IN: // next record O=C(c1ccoc1)N1CCc2[nH]cnc2C1c1ccccc1 (centres undefined)
OUT: 585 s

IN: // repeat for `Fc1ccc(Cn2cc(-c3noc(-c4ccc5c(c4)OCO5)n3)nn2)cc1` and report
OUT: 937 s

IN: Same thing, different compound: Cc1ccc2c(c1)C(O)(CC(=O)c1ccc(NC(=O)C(C)(C)C)cc1)C(=O)N2 (centres undefined)
OUT: 747 s

----------
Would you mind telling me the reported RP-LC retention time of each entry?
- TEST_PROTOCOL: gradient 5% acetonitrile 3 min, to 50% in 2 min, to 85% in 15 min, held 3 min, 100 µL/min
- PROTOCOL_CONDITIONS: column: Zorbax Extend-C18 2.1 x 50 mm; eluents: water / acetonitrile, 0.1% formic acid
# number only, unit s dropped from output

IN: Sample COc1cccc(CNC(=O)C2CCN(C(=O)C3Sc4ccccc4NC3=O)CC2)c1 (configuration not stated) — what was its RP-LC retention time?
OUT: 725

IN: Could you do the same for `Cc1ccc(-c2nnc(-c3ccccc3Cl)o2)cc1S(=O)(=O)N1CCCCC1` , please?
OUT: 1200

IN: Param item: COc1cccc(OC)c1C(=O)N1CCCC1c1c(C)noc1C (configuration not stated)
OUT: 665

IN: One more compound: `COc1ccc(CNC(=O)C2CCN(S(=O)(=O)c3cn(C(C)C)cn3)CC2)cc1`
OUT: 733

IN: Same question for `CCc1noc2nc(C)n(CC(=O)NCCCc3ccccc3)c(=O)c12` please.
OUT: 832

IN: Request: CCSc1nnc(NC(=O)Cc2cc(-c3ccc4c(c3)CC(C)O4)on2)s1 (configuration not stated)
OUT: 895

IN: # repeat for CCN(Cc1ccccc1)C(=O)CN1C(=O)N(c2cc(C)cc(C)c2)C2CS(=O)(=O)CC21 (configuration not stated)
OUT: 893

----------
- TEST_PROTOCOL: gradient 5% acetonitrile 3 min, to 50% in 2 min, to 85% in 15 min, held 3 min, 100 µL/min
- PROTOCOL_CONDITIONS: column: Zorbax Extend-C18 2.1 x 50 mm; eluents: water / acetonitrile, 0.1% formic acid
RP-LC retention time below 800 s gives 0 (no); RP-LC retention time at or above it gives 1 (yes).

IN: Threshold query (RP-LC retention time >= 800 s) on `Cc1cc(S(=O)(=O)NCC2(C)CCOCC2)ccc1F`
OUT: 1 (yes)

IN: Now consider O=C(NCc1ccccc1)C1CCCN(c2nc3ccsc3c(=O)n2Cc2ccc(F)cc2)C1 (stereo unspecified) .
OUT: 1 (yes)

IN: Next molecule: `Cc1cc(C)c(S(=O)(=O)N2CCc3c(c(-c4nnc(-c5ccccc5F)o4)nn3C)C2)cc1C`
OUT: 1 (yes)

IN: Okay, and `O=C(Cn1nc2c3cc(-c4ccc(F)cc4)nn3ccn2c1=O)Nc1ccc(Br)cc1` ?
OUT: 1 (yes)

IN: Note, next up: `O=C(NCc1nnnn1C1CCCCC1)c1ccc(Br)o1`
OUT: 0 (no)

IN: Lookup CCc1nc(-c2csc(S(=O)(=O)N3CCCC(C(=O)NCc4ccccc4Cl)C3)c2)no1 (stereo unspecified)
OUT: 1 (yes)

IN: Follow-up entry: `CCOC(=O)NCCS(=O)(=O)N1CCN(c2ccccc2F)CC1`
OUT: 0 (no)

IN: Note, next up: `CC(C)(C)c1cc(C(=O)Nc2ccccc2)nc2ccnn12`
OUT: 1 (yes)

IN: Field entry: COc1ccc2c(c1)C1(CCN(C(=O)CCc3ccccc3)C1)C(=O)N2 (stereo unspecified)
OUT: 0 (no)

IN: Do the same for `CCOc1cccc(CNC(=O)c2cn(C)nc2S(=O)(=O)N2CCSCC2)c1` please
OUT: 1 (yes)

----------
- TEST_PROTOCOL: gradient 5% acetonitrile 3 min, to 50% in 2 min, to 85% in 15 min, held 3 min, 100 µL/min
- PROTOCOL_CONDITIONS: column: Zorbax Extend-C18 2.1 x 50 mm; eluents: water / acetonitrile, 0.1% formic acid
MEASURE: RP-LC retention time (s)
Kindly provide the numeric value in s only, without the unit symbol.

IN: Would you kindly share the measured RP-LC retention time for `CC1CCN(C(=O)CN2C(=O)CCCc3cc(S(=O)(=O)N4CCCCC4)ccc32)CC1` ?
OUT: 901

IN: Query COc1ccc(OC)c(NC(=O)C2CCN(C(=O)C3Sc4ccccc4NC3=O)CC2)c1 (stereo not drawn) next
OUT: 754

IN: Same again, this time with CCNC(=O)N(CC(=O)N1CCc2sccc2C1COc1ccc(F)cc1)CC1CCCO1 (stereo not drawn)
OUT: 856

IN: Try `COCCN1C(=O)CCc2cc(NC(=O)c3ccccc3Br)ccc21` next.
OUT: 746

IN: What would you report for `CC1(C(=O)N2CC(F)(F)C[C@H]2c2nc(-c3ccncc3)no2)CC1` ?
OUT: 735

IN: Param item: CC1(C(=O)NC2CCCC2)Cn2cnc(C(=O)NCCCc3ccccc3)c2C(=O)N1C1CC1 (stereo not drawn)
OUT: 823

IN: Next record, please: `O=C(c1cccc(F)c1)N1CCC(n2nc(-c3ccsc3)ccc2=O)CC1`
OUT: 807

IN: Try this compound next: O=C1CC(c2ccco2)Cc2[nH]c(=O)c(C(=O)Nc3ccccc3C(F)(F)F)cc21 (stereo not drawn)
OUT: 746

----------
- TEST_PROTOCOL: gradient 5% acetonitrile 3 min, to 50% in 2 min, to 85% in 15 min, held 3 min, 100 µL/min
- PROTOCOL_CONDITIONS: column: Zorbax Extend-C18 2.1 x 50 mm; eluents: water / acetonitrile, 0.1% formic acid
MEASURE: RP-LC retention time (s)
Express your answer in s, writing the number without its unit.

IN: Suppose we examine the compound CC(Oc1cccc(Cl)c1)C(=O)NCC1CCOCC1 (stereo not drawn) ; what RP-LC retention time value has been reported?
OUT: 779

IN: Again, but for Cc1nc2cc(N3CC(C(=O)Nc4cccc(C)c4C)CC3=O)ccc2o1 (stereo not drawn)
OUT: 785

IN: Next up: O=C(C1CCCN(c2nc3ccccc3n3cccc23)C1)N1CCN(c2ccccc2)CC1 (stereo not drawn)
OUT: 793

----------
Field: RP-LC retention time. Provide a value for each of the compounds that follow.
- TEST_PROTOCOL: gradient 5% acetonitrile 3 min, to 50% in 2 min, to 85% in 15 min, held 3 min, 100 µL/min
- PROTOCOL_CONDITIONS: column: Zorbax Extend-C18 2.1 x 50 mm; eluents: water / acetonitrile, 0.1% formic acid
Entry rule: numbers only, all in s.

IN: # get_value(readout='RP-LC retention time', item= `O=S(=O)(c1cccc(-c2nc(-c3ccccc3)no2)c1)N1CCc2ccccc21` )
OUT: 1320

IN: Also need `Cc1sc2ccn(C)c(=O)c2c1C(=O)Nc1ccccc1` , thanks.
OUT: 818

IN: Now try `CCCCS(=O)(=O)N1CC[C@H](CN(C)C(C)=O)[C@H](N(C)C)C1` .
OUT: 584

IN: Thanks! And COc1ccc2[nH]cc(CCNC(=O)C3CCCN(c4nc5ncccc5n5cccc45)C3)c2c1 (stereo not given) ?
OUT: 623

IN: Please answer likewise for `COc1ccc(NC(=O)Cn2nc3cc(C)nc(-c4ccccc4)n3c2=O)cc1OC`
OUT: 736

IN: Can you check CCOC(=O)C1CCc2sc(NC(=O)Cc3sc(C)nc3C)nc21 (stereo not given) next?
OUT: 639

IN: Please do the same for `Cc1ccc(CNC(=O)C2CCN(c3ncccc3S(=O)(=O)N3CCCCC3)CC2)cc1` as well.
OUT: 960

IN: Next compound up: Cc1[nH]c(C(=O)N2CCCC(C(=O)NCCN3CCN(C)CC3)C2)c(C)c1C(=O)OC(C)C (stereo not given)
OUT: 598

IN: And for `CCN1C(=O)c2cccnc2Sc2cc(NC(=O)Cc3ccccc3C)ccc21` ?
OUT: 898

IN: How about `CN1c2cc(F)ccc2C(=O)NC12CCN(C(=O)c1ccc(F)cc1)CC2` ?
OUT: 744

IN: Another: CC1CCCN(c2ccc(-c3noc(CN4CCc5ccccc5C4)n3)cn2)C1 (stereo not given)
OUT: 970

IN: Try this compound next: CC1Cc2cc(-c3cc(CC(=O)NCCc4ccc(S(N)(=O)=O)cc4)no3)ccc2O1 (stereo not given)
OUT: 701

IN: Can you handle CCCOc1nccnc1N1CCC(N(C)C(=O)c2ccc(C)nc2)C1 (stereo not given) next?
OUT: 657

IN: Try the compound `CC(C)C(=O)N1CCc2ccc([N+](=O)[O-])cc2C1`
OUT: 728

IN: What about this compound? `O=C(Nc1cccc(F)c1)C(=O)c1cn(CC(=O)N2CCOCC2)c2ccccc12`
OUT: 902

IN: `CCOc1ccccc1N1CCN(c2cc(C(=O)O)c3cc(NC(=O)C(C)C)ccc3n2)CC1` , same question.
OUT: 684

IN: What about this compound? COc1ccc(NC(=O)N2CCc3[nH]cnc3C2c2ccccn2)cc1OC (stereo not given)
OUT: 568

IN: # repeat for `Cc1ccc(-c2noc(-c3cccc(S(=O)(=O)NCCN4CCCCCC4)c3)n2)cc1`
OUT: 794

IN: Do the same for O=C(NCC1OCCc2ccccc21)C(=O)N1CCCCC1 (stereo not given) please
OUT: 716

IN: Again, but for `Cc1ccc(S(=O)(=O)N2CCC(c3noc(-c4cccc(F)c4)n3)CC2)cc1`
OUT: 1160
